Biological target: human peroxisome proliferator-activated receptor (PPAR)α (Homo sapiens)
Sequence (Q07869 239-466 limits assumed): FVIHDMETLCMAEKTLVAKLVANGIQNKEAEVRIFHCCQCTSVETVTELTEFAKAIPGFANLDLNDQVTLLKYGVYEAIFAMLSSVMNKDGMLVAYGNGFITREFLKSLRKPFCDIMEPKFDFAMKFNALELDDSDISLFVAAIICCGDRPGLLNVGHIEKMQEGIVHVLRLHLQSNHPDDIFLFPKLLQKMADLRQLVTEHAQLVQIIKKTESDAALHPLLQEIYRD
Assay: Binding assay to human PPARα (His-hPPARα-LBD, [3H] ligand)
Design: expressed in transfected cells
Provide the reported pEC50 of each item.
# pEC50: negative log10 of molar concentration; output just the value

Exam item: // returns reported pEC50 for input CCC(Cc1ccc(OC)c(C(=O)NCc2ccc(C(F)(F)F)cc2)c1)C(=O)O (centres unmarked)
Marked response: 6.72

Exam item: // returns reported pEC50 for input CCC(Cc1ccc(OC)c(C(=O)NCc2ccc(-c3ccccc3)cc2)c1)C(=O)O (centres unmarked)
Marked response: 6.37

Exam item: // returns reported pEC50 for input COc1ccc(CC(C)C(=O)O)cc1C(=O)NCc1ccc(C(F)(F)F)cc1 (centres unmarked)
Marked response: 6.08

Exam item: // returns reported pEC50 for input CCC(Cc1ccc(OC)c(C(=O)NCc2ccc(Oc3ccccc3)cc2)c1)C(=O)O (centres unmarked)
Marked response: 6.13

Exam item: // returns reported pEC50 for input COc1ccc(CC(OC)C(=O)O)cc1C(=O)NCc1ccc(C(F)(F)F)cc1 (centres unmarked)
Marked response: 6.25

// provenance: patent US6506797B1
